Data provenance: patent US20230348477A1

TEST PROTOCOL: Solubility test in water by LC/MS
Type: physicochemical
MEASUREMENT CONDITIONS: thermodynamic from solid, room temperature, one atmosphere, filtrate quantified by LC/MS against calibration curve, read-out: solubility in 1 mL of water

{"SMILES STRING": "c1cc(N2CCCn3ccnc32)nc(N2CCCn3ccnc32)c1", "solubility at 5 min (µg/mL)": 18}

* * *

TEST PROTOCOL: Solubility test in water by visual inspection
Assay type: physicochemical
MEASUREMENT CONDITIONS: room temperature, one atmosphere, about 1.2 mg sample, water added in 10 mL steps (tip compounds)
MEASUREMENT KIND: solubility in water, result in words (visual inspection)

{"SMILES STRING": "c1cc(N2CCCN3CCCN=C32)nc(N2CCCN3CCCN=C32)c1", "RESULT": "high solubility in water"}
{"SMILES STRING": "c1ccc2c(c1)-c1ccccc1C21c2cc(N3CCCN4CCCN=C43)ccc2-c2ccc(N3CCCN4CCCN=C43)cc21", "RESULT": "high solubility in water"}
